This section presents compounds with their documented pIC50 values.
Tested on: SW620 cells
Method: MTT cytotoxicity assay, SW620
Format: cell-based
Condition Info: Homo sapiens, SW-620, 48 h, mean ± SD
pIC50: −log10 of the molar value.

# Compound, Relational Operator, pIC50
records = [
    ("C[C@@H]1O[C@H]2O[C@@H]3[C@@H](C)O[C@@H](c4ccc5c(c4O)C(=O)C4=C(C5=O)[C@@]5(O)C(=O)C[C@](C)(O)C[C@@]5(O)C=C4)C[C@H]3O[C@H]2CC1=O [Saquayamycin B1]", "=", 6.59),
    ("C[C@@H]1O[C@@H](O[C@H]2CC[C@H](O[C@@]3(C)CC(=O)[C@]4(O)C5=C(C=C[C@]4(O)C3)C(=O)c3c(ccc([C@H]4C[C@H]6O[C@H]7CC(=O)[C@H](C)O[C@H]7O[C@@H]6[C@@H](C)O4)c3O)C5=O)O[C@H]2C)C=CC1=O [Saquayamycin B]", "=", 6.38),
    ("COc1cccc2c1C(=O)c1c(O)c3c(c(O)c1C2=O)C[C@@](O)(C(=O)CO)C[C@@H]3O[C@H]1C[C@H](N)[C@H](O)[C@H](C)O1 [Doxorubicin, reference compound]", "=", 5.97),
    ("C[C@@H]1O[C@H]2O[C@@H]3[C@@H](C)O[C@@H](c4ccc5c(c4O)C(=O)c4ccc6c(c4C5=O)C(=O)C[C@](C)(O)C6)C[C@H]3O[C@H]2CC1=O [Moromycin B]", "=", 6.47),
    ("Cc1cc(O)c2c3c(cc(O)c2c1)C(=O)c1c(ccc([C@H]2C[C@H]4O[C@H]5CC(=O)[C@H](C)O[C@H]5O[C@@H]4[C@@H](C)O2)c1O)C3=O [Landomycin N]", "<", 4.70),
]

* * *

Tested on: LoVo cells
Method: MTT cytotoxicity assay, LoVo
Format: cell-based
Condition Info: Homo sapiens, 48 h, mean ± SD

# Compound, IC50
rows = [
    ("COc1cccc2c1C(=O)c1c(O)c3c(c(O)c1C2=O)C[C@@](O)(C(=O)CO)C[C@@H]3O[C@H]1C[C@H](N)[C@H](O)[C@H](C)O1 [Doxorubicin, reference compound]", "830 nM"),
    ("C[C@@H]1O[C@H]2O[C@@H]3[C@@H](C)O[C@@H](c4ccc5c(c4O)C(=O)c4ccc6c(c4C5=O)C(=O)C[C@](C)(O)C6)C[C@H]3O[C@H]2CC1=O", "780 nM"),
    ("Cc1cc(O)c2c3c(cc(O)c2c1)C(=O)c1c(ccc([C@H]2C[C@H]4O[C@H]5CC(=O)[C@H](C)O[C@H]5O[C@@H]4[C@@H](C)O2)c1O)C3=O", "> 20000 nM"),
    ("C[C@@H]1O[C@H]2O[C@@H]3[C@@H](C)O[C@@H](c4ccc5c(c4O)C(=O)C4=C(C5=O)[C@@]5(O)C(=O)C[C@](C)(O)C[C@@]5(O)C=C4)C[C@H]3O[C@H]2CC1=O", "630 nM"),
    ("C[C@@H]1O[C@@H](O[C@H]2CC[C@H](O[C@@]3(C)CC(=O)[C@]4(O)C5=C(C=C[C@]4(O)C3)C(=O)c3c(ccc([C@H]4C[C@H]6O[C@H]7CC(=O)[C@H](C)O[C@H]7O[C@@H]6[C@@H](C)O4)c3O)C5=O)O[C@H]2C)C=CC1=O", "750 nM"),
]
